# tested_on: T1, chimeric (mouse and human) 4-1BB (c4-1BB) on transfected CHO cells (chimeric (mouse and human))
# T1 construct: also called chi4-1BB; CHO-c4-1BB
# protocol: flow cytometry on transfected CHO cells;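 also: antibodies tested at 1 µg/ml on CHO cells for 30 min at 4 °C, binding detected with FITC- or PE-labeled anti-mouse IgG Fc secondary by flow cytometry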
quantity_kind: binding result

45-7E9 (antibody, V domains shown, mouse antibody purified from ascites) VH: QVQLKQSGPGLVQPSQSLSITCTVSGFSLTTYGVHWVRQPPGKGLEWLGVIWSDGNTDYNDAFISRLSITKDNSTSQVFFKMNGLQADDTAIYYCARNSITSVSFDCWGQGTTLTVSS VL: DIVMTQSQKFMSTSVGDRVSVTCKASQNVGTTVAWYQQRPGQSPKALICSASYRYSGVPDRFTGSGSGTDFTLTISNVQSEDLAEYFCQQYNSYPLTFGSGTKLEIK    binds
45-4B9 (antibody, V domains shown, mouse antibody purified from ascites) VH: EVQLQQSGPELVKPGASVKMSCKASGYTFTTYVMYWVKQRPGQGLEWIGYINPYNDDIRYNEKFKGKATLTSDRSSSTAYMELSSLTSEDSAVYLCARQGGDYWGQGTILTVSS VL: DVQITQSPSYLAASPGETITVNCRASKNINKYLAWYQEKPGKTNKLLIYSGSTLQSGIPSRFSGSGSGTDFTLTISSLEPEDFAVYHCQQYNEYPLTFGAGTKLEMK    binds
